Target: human α5β3γ2 GABAARs in mouse L(tk−) cells (Homo sapiens, UniProt P18507+P31644)
Construct: expressed in transfected cells; host or cells: mouse L(tk−) cells, dexamethasone-inducible vector pMSGneo
Sequence (P31644 32-462): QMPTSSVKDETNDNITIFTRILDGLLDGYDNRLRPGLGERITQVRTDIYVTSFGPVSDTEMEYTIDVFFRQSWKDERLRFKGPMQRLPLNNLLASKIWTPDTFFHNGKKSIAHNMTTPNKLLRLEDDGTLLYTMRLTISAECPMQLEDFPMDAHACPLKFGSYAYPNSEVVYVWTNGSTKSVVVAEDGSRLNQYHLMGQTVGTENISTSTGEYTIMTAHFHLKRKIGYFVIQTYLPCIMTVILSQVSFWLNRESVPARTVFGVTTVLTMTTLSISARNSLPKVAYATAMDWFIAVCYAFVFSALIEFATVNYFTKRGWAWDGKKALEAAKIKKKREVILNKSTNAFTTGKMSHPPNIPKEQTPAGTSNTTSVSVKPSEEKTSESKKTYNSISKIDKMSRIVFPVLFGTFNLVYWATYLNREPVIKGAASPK
Sequence (P28472 26-473 partner): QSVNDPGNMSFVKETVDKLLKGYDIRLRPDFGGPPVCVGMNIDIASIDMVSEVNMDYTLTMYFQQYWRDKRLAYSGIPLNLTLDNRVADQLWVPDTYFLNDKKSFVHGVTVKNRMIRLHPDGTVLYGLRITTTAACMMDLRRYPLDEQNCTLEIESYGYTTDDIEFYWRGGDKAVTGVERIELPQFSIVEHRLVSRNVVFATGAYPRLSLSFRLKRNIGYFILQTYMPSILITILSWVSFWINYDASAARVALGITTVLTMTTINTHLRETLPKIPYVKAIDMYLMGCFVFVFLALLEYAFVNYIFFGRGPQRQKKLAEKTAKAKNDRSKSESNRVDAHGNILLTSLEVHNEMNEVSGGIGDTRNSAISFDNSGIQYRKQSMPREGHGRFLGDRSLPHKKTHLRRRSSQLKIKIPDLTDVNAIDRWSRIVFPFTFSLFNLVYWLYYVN
Sequence (P18507 40-475): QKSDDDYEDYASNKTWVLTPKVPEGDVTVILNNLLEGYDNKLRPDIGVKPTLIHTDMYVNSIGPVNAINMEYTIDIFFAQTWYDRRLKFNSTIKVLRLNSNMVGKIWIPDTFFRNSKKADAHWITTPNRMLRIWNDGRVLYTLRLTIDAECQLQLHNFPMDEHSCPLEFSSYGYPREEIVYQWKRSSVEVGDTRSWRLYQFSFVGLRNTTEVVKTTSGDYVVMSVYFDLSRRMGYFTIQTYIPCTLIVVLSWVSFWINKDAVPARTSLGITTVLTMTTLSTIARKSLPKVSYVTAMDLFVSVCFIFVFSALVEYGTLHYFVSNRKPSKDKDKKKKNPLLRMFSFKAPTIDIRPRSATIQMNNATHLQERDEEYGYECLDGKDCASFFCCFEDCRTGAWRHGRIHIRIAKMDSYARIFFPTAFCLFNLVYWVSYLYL
Assay: In vitro electrophysiological recording assay (α5-GABAAR relative efficacy), QPatch
Type: cell-based
Conditions: Conc 0.3 μM; GABA EC10-20
Excerpt: Mouse L(tk^−) cells stably expressing human α1β3γ2, α2β3γ2, α3β3γ2, α5β3γ2 GABAARs generated by transfection of the individual subunits in the dexamethasone-inducible expression vector pMSGneo in mouse L(tk^−) cells (Hadingham et al., 1993, Mol. Pharmacol. 43:970-975 and 1993, Mol. Pharmacol. 44:1211-1218) were used for binding and functional assays. […]
Endpoint name: α5-GABAAR Relative Efficacy (to DMCM), Qpatch
No unit in the answer, please; the number alone is enough.

Recorded α5-GABAAR Relative Efficacy (to DMCM), Qpatch, per entry:
COc1nc(-c2cncc(C(=O)N(C)C)c2)ccc1NC(=O)c1c(-c2ccccc2)noc1C [Example 95]	−0.66
COc1cc(-c2cn[nH]c2)cnc1NC(=O)c1c(-c2ccccc2)noc1C [Example 18]	−0.61
COc1nc(-c2cncnc2)cnc1NC(=O)c1c(-c2ccccc2)noc1C [Example 56]	−0.64

Form field: reported α5-GABAAR Relative Efficacy (to DMCM), Qpatch of COc1nc(-n2cncc2CN(C)C)ccc1NC(=O)c1c(-c2ccccc2)noc1C [Example 153]
−0.83

Form field: reported α5-GABAAR Relative Efficacy (to DMCM), Qpatch of COc1nc(-c2ccc3nc(N)nn3c2)ccc1NC(=O)c1c(-c2ccccc2)noc1C [Example 57]
−0.57

Form field: reported α5-GABAAR Relative Efficacy (to DMCM), Qpatch of COc1nc(-c2cnnn2C)ccc1NC(=O)c1c(-c2ccccc2)noc1C [Example 102]
−0.79

Form field: reported α5-GABAAR Relative Efficacy (to DMCM), Qpatch of COc1cc(-c2cccc3nccn23)cnc1NC(=O)c1c(-c2ccccc2)noc1C [Example 29]
−0.53

Form field: reported α5-GABAAR Relative Efficacy (to DMCM), Qpatch of COc1nc(-n2cnc3c2CNCC3)ccc1NC(=O)c1c(-c2ccccc2)noc1C.Cl.Cl [Example 179]
−0.65

Form field: reported α5-GABAAR Relative Efficacy (to DMCM), Qpatch of COc1nc(-c2cnc(C(=O)O)nc2)ccc1NC(=O)c1c(-c2ccccc2)noc1C [Example 60]
−0.92

Form field: reported α5-GABAAR Relative Efficacy (to DMCM), Qpatch of COc1nc(-c2ccncc2)ccc1NC(=O)c1c(-c2ccccc2)noc1C [Example 42]
−0.60

Form field: reported α5-GABAAR Relative Efficacy (to DMCM), Qpatch of COc1nc(-c2ccnn2C)ccc1NC(=O)c1c(-c2ccccc2)noc1C [Example 23]
−0.46
